Test system: HB3
Assay: qHTS profiling for inhibitors of Plasmodium falciparum proliferation (AID 504749); further: nearly all actives have a fitted effect of over 60% in size
Conditions: P. falciparum in erythrocytes, SYBR Green DNA, 72 h; series mostly up to 28.7 µM
Records with an inconclusive call do not appear. The source made the active and inactive calls. The call rests on the fitted dose curve; in most records, active means well fitted inhibition curve with a large enough effect; inconclusive means small, poorly fitted or top-dose-only effect; inactive means flat fitted curve, though single readings scatter.

SMILES STR	outcome
C=C[C@@]1(C)CC(=O)[C@]2(O)[C@@]3(C)[C@@H](O)CCC(C)(C)[C@@H]3[C@H](O)[C@H](OC(C)=O)[C@@]2(C)O1	inactive
O=S(=O)(O)c1ccc(O)cc1	inactive
CN1CCN(CCC(=O)N2c3ccccc3Sc3ccc(C(F)(F)F)cc32)CC1	inactive

---

Assay: qHTS assay to identify small molecule inhibitors of chordoma cells - UCH-1 (AID 1259355); further: nearly all actives have a fitted effect of over 55% in size
Conditions: UCH-1 chordoma viability, CellTiter-Glo, 48 h, combination, with auranofin plus four topoisomerase inhibitors; series mostly up to 46.1 µM
Results filed as inconclusive are left out. Calls of active or inactive are those of the source. The call rests on the fitted dose curve; in most records, active means well fitted cell-killing curve with a large enough effect; inconclusive means small, poorly fitted or top-dose-only effect, or effect the other way; inactive means no such curve, though single readings can be large or run the other way.
Classes used: 1 (yes) (active), 0 (no) (inactive)

COMPOUND	GROUP LABEL
COP(=O)(OC)OC(c1ccc(Cl)cc1)P(=O)(OC)OC (centres undefined)	0 (no)
O[C@@H](c1cc(C(F)(F)F)nc2c(C(F)(F)F)cccc12)[C@H]1CCCCN1	1 (yes)
CCN1CCN(C(=O)N[C@@H](C(=O)N[C@@H]2C(=O)N3C(C(=O)O)=C(CSc4nnnn4C)CS[C@H]23)c2ccc(O)cc2)C(=O)C1=O	0 (no)
CN(C)CCC[C@@]1(c2ccc(F)cc2)OCc2cc(C#N)ccc21	0 (no)
CCCCCCCCNC(C)C(O)c1ccc(SC(C)C)cc1 (centres undefined)	1 (yes)
OCCOCCN1CCN(C2=Nc3ccccc3Sc3ccccc32)CC1	0 (no)
CN1CCC[C@@H]1CCO[C@](C)(c1ccccc1)c1ccc(Cl)cc1	0 (no)
COc1cc(C(=S)N2CCOCC2)ccc1O	0 (no)
CN1CCN(CCC(=O)N2c3ccccc3Sc3ccc(C(F)(F)F)cc32)CC1	0 (no)
NCCNC(=O)c1ccc(Cl)cn1	0 (no)
COc1ccc2c(c1)c1c3n2CCN(C)C3=NCC1	0 (no)
Clc1cccc(C(c2ccc3nc[nH]c3c2)n2ccnc2)c1 (centres undefined)	0 (no)
NC1CCN(c2nc3c(cc2F)c(=O)c(C(=O)O)cn3-c2ccc(F)cc2F)C1 (centres undefined)	0 (no)
C#C[C@]1(O)CC[C@H]2[C@@H]3[C@H](C)CC4=C(CCC(=O)C4)[C@H]3CC[C@@]21C	0 (no)

---

Test system: HEK293
Test: Cytotoxic Profiling of Annotated Libraries Using Quantitative High-Throughput Screening (AID 1296008); further: on the % scale 0 is the no-effect control and ±100 the full control effect; nearly all actives have a fitted effect of over 60% in size
Settings: Five cell lines viability, CellTiter-Glo ATP luminescence, 48-72 h; hits give low values
Results filed as inconclusive are left out.
This listing pairs compounds with measured max response.

COMPOUND	max response (%)
Cc1cccc(C)c1NC(=O)c1ccccc1C(=O)O	0.24
CCCCCCCC/C=C\CCCCCCCCN	-3.13
CCN1CCN(C(=O)N[C@@H](C(=O)N[C@@H]2C(=O)N3C(C(=O)O)=C(CSc4nnnn4C)CS[C@H]23)c2ccc(O)cc2)C(=O)C1=O	-4.75
CCCCC(CC)COC(=O)/C=C/c1ccc(OC)cc1 (stereo not drawn)	-2.18
CC(C)Cn1cnc2c1c(=O)n(C)c(=O)n2C	-0.637
CCCc1ncc(C[n+]2ccccc2C)c(N)n1	-18.1
CCNC(=O)/C=C/c1cccc(Br)c1	-0.855
CCc1ccc(C(=O)C(C)CN2CCCCC2)cc1 (stereo not drawn)	-19.7
CCCCCCCCCCCCCCCCO	1.14
NS(=O)(=O)c1cc2c(cc1Cl)NC(CC1CCCC1)NS2(=O)=O (stereo not drawn)	-7.58
C=C[C@H]1CN2CC[C@H]1C[C@@H]2[C@@H](O)c1ccnc2ccc(OC)cc12	-4.02
O=C(O)C1(C(=O)O)CCC1.[NH2-].[NH2-].[Pt+2]	1.14
COc1cc(N)c(Cl)cc1C(=O)NC1CCN(Cc2ccccc2)CC1	-8.36

---

Tested on: PC26
Test: qHTS profiling for inhibitors of Plasmodium falciparum proliferation (AID 504749); further: nearly all actives have a fitted effect of over 60% in size
Details: P. falciparum in erythrocytes, SYBR Green DNA, 72 h; series mostly up to 28.7 µM
Records with an inconclusive call do not appear. Active and inactive are the calls of the source. The call rests on the fitted dose curve; in most records, active means well fitted inhibition curve with a large enough effect; inconclusive means small, poorly fitted or top-dose-only effect; inactive means flat fitted curve, though single readings scatter.
Classes used: active, inactive

COMPOUND	GROUP LABEL
FC(F)(F)C(F)(F)C(F)(F)C(F)(F)C(F)(F)C(F)(F)C(F)(F)C(F)(F)Br	inactive
CCOC(=O)c1ccc(N)cc1	inactive
CC(=O)NC(=O)c1ccccc1O	inactive
CCCCCCCCCCCCCCCC(=O)O	inactive
C#C[C@]1(O)CC[C@H]2[C@@H]3CCC4=CC(=O)CC[C@@H]4[C@H]3CC[C@@]21CC	inactive
Cc1c[nH]c2ccccc12	inactive
N/C(=N\N=C\c1ccc(Cl)cc1)N/N=C/c1ccc(Cl)cc1	inactive
NC(=O)c1ccccc1O	inactive
CCCCCCCCCCCCOCCOCCOCCOCCOCCOCCOCCOCCOCCO	inactive
OC1C(O)C(O)C(O)C(O)C1O (configuration not stated)	inactive
O[C@@H](c1cc(C(F)(F)F)nc2c(C(F)(F)F)cccc12)[C@H]1CCCCN1	active
O=C1C(CCS(=O)c2ccccc2)C(=O)N(c2ccccc2)N1c1ccccc1 (configuration not stated)	inactive
C[N+]1(CC2COC(c3ccccc3)(C3CCCCC3)O2)CCCCC1 (configuration not stated)	active
CCCCCCCCCCCCCC(=O)OC(C)C	inactive
NC(=O)n1c(O)c(C(=O)c2cccs2)c2cc(Cl)ccc21	inactive
C[N+]1(C)CCC(=C(c2ccccc2)c2ccccc2)CC1	inactive
NS(=O)(=O)c1cc(C(=O)O)cc(N2CCCC2)c1Oc1ccccc1	inactive
CCC(C(=O)OCCOCCN(CC)CC)c1ccccc1 (configuration not stated)	inactive
CCCCCCCCCCCCCCCCO	inactive
CCN(CC)CCOc1ccc2c(c1)C(=O)c1cc(OCCN(CC)CC)ccc1-2	active
CCN(CC)CCNC(=O)COc1ccc(OC)cc1	inactive
COc1ccc(CCN(C)CCCN2CCc3cc(OC)c(OC)cc3CC2=O)cc1OC	inactive
CCCCCCCCNC(C)C(O)c1ccc(SC(C)C)cc1 (configuration not stated)	active
C/C=C/C=N/NC(=O)c1ccncc1	inactive
CC(C)Nc1cccnc1N1CCN(C(=O)c2cc3cc(NS(C)(=O)=O)ccc3[nH]2)CC1	inactive
CC1(COc2ccc(CC3SC(=O)NC3=O)cc2)CCCCC1 (configuration not stated)	inactive
CCC1Nc2cc(Cl)c(S(N)(=O)=O)cc2S(=O)(=O)N1 (configuration not stated)	inactive
Oc1ccccc1C=NCc1ccccc1	inactive
NC1CCN(c2nc3c(cc2F)c(=O)c(C(=O)O)cn3-c2ccc(F)cc2F)C1 (configuration not stated)	inactive
Cc1cc(C)cc(OCC2CNC(=O)O2)c1 (configuration not stated)	inactive
Nc1ccc(S(=O)(=O)NCc2ccccc2)cc1	inactive
COc1ccc(/C=N/NC(=O)c2ccncc2)cc1OC	inactive

---

Tested on: Dd2
Assay: qHTS profiling for inhibitors of Plasmodium falciparum proliferation (AID 504749); further: nearly all actives have a fitted effect of over 60% in size
Details: P. falciparum in erythrocytes, SYBR Green DNA, 72 h; series mostly up to 28.7 µM
Inconclusive results are not listed. Activity calls are given as the source filed them. Calls come from the whole dose curve; as a rule, active = well fitted inhibition curve with a large enough effect; inconclusive = small, poorly fitted or top-dose-only effect; inactive = flat fitted curve, though single readings scatter.

SMILES STR	outcome
CCCCCCCCOc1ccc(C(=O)c2ccccc2)c(O)c1	inactive
CCC(CC)(CC(=O)Nc1cccc(/C=C/c2nc(C3CCC3)cs2)c1)C(=O)O	inactive
CCCCCCCCCCCCCCCC(=O)O	inactive

---

Biological target: Voltage-gated inwardly rectifying potassium channel KCNH2 (Homo sapiens)
Assay: qHTS Assay for Small Molecule Inhibitors of the Human hERG Channel Activity (AID 588834);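 further: lower thallium flux fluorescence means stronger hERG block; nearly all actives have a fitted effect of over 50% in size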
Details: U2OS BacMam hERG, FluxOR thallium flux fluorescence; series mostly up to 46.1 µM
Results filed as inconclusive are left out. Active and inactive are the calls of the source. Calls come from the whole dose curve; as a rule, active = well fitted inhibition curve with a large enough effect; inconclusive = small, poorly fitted or top-dose-only effect; inactive = flat fitted curve, though single readings scatter.
Classes used: label 1 (active), label 0 (inactive)

COMPOUND	SYSTEM NAME	GROUP LABEL
CCNC(=O)NCc1cccc(Cl)c1	Voltage-gated inwardly rectifying potassium channel KCNH2 (Homo sapiens)	label 0
CC(C(=O)O)c1cccc(Oc2ccccc2)c1 (configuration not stated)	Voltage-gated inwardly rectifying potassium channel KCNH2 (Homo sapiens)	label 0
O=C(O)c1ccc(S(=O)(=O)N(Cl)Cl)cc1	Voltage-gated inwardly rectifying potassium channel KCNH2 (Homo sapiens)	label 0
COc1cc([C@H]2Oc3cc([C@H]4Oc5cc(O)cc(O)c5C(=O)[C@@H]4O)ccc3O[C@@H]2CO)ccc1O	Voltage-gated inwardly rectifying potassium channel KCNH2 (Homo sapiens)	label 0
CN(C)C(=O)Nc1ccc(Cl)c(Cl)c1	Voltage-gated inwardly rectifying potassium channel KCNH2 (Homo sapiens)	label 0
CNCCCCOc1ccccc1Cc1ccccc1	Voltage-gated inwardly rectifying potassium channel KCNH2 (Homo sapiens)	label 1
NCCNC(=O)c1ccc(Cl)cn1	Voltage-gated inwardly rectifying potassium channel KCNH2 (Homo sapiens)	label 0
CCCc1ncc(C[n+]2ccccc2C)c(N)n1	Voltage-gated inwardly rectifying potassium channel KCNH2 (Homo sapiens)	label 0
NC(=S)N/N=C/c1cccnc1	Voltage-gated inwardly rectifying potassium channel KCNH2 (Homo sapiens)	label 0
C[C@@H](O)[C@H]1C(=O)N2C(C(=O)O)=C(S[C@@H]3CN[C@H](CNS(N)(=O)=O)C3)[C@H](C)[C@H]12	Voltage-gated inwardly rectifying potassium channel KCNH2 (Homo sapiens)	label 0
O=C1c2cccc3c2[C@H](CCC3)CN1[C@@H]1CN2CCC1CC2	Voltage-gated inwardly rectifying potassium channel KCNH2 (Homo sapiens)	label 1
CCOc1cc(OCC)c(C(=O)CCC(=O)O)cc1OCC	Voltage-gated inwardly rectifying potassium channel KCNH2 (Homo sapiens)	label 0
NC(=O)n1c(O)c(C(=O)c2cccs2)c2cc(Cl)ccc21	Voltage-gated inwardly rectifying potassium channel KCNH2 (Homo sapiens)	label 0
CC(=O)Oc1ccc(C)cc1	Voltage-gated inwardly rectifying potassium channel KCNH2 (Homo sapiens)	label 0
CCCCCCCCCCCCSCCOCCO	Voltage-gated inwardly rectifying potassium channel KCNH2 (Homo sapiens)	label 0
O=[N+]([O-])c1ccc(/C=N\O)o1	Voltage-gated inwardly rectifying potassium channel KCNH2 (Homo sapiens)	label 0
CCCCc1cc2ccccc2c(OCCN(C)C)n1	Voltage-gated inwardly rectifying potassium channel KCNH2 (Homo sapiens)	label 1
CN1CCN(c2c(F)cc3c(=O)c(C(=O)O)cn4c3c2SCC4)CC1	Voltage-gated inwardly rectifying potassium channel KCNH2 (Homo sapiens)	label 0
NS(=O)(=O)c1cc(C(=O)O)cc(N2CCCC2)c1Oc1ccccc1	Voltage-gated inwardly rectifying potassium channel KCNH2 (Homo sapiens)	label 0
CC(=O)OCC(=O)[C@H]1CC[C@H]2[C@@H]3CCC4=CC(=O)CC[C@]4(C)[C@H]3CC[C@]12C	Voltage-gated inwardly rectifying potassium channel KCNH2 (Homo sapiens)	label 0
CCc1oc2ccccc2c1C(=O)c1cc(Br)c(O)c(Br)c1	Voltage-gated inwardly rectifying potassium channel KCNH2 (Homo sapiens)	label 0
CC(C)Cn1cnc2c1c(=O)n(C)c(=O)n2C	Voltage-gated inwardly rectifying potassium channel KCNH2 (Homo sapiens)	label 0
CC[C@]12CCCN3CCc4c(n(c5ccccc45)C(=O)C1)[C@@H]32	Voltage-gated inwardly rectifying potassium channel KCNH2 (Homo sapiens)	label 1
CCc1oc2ccccc2c1C(=O)c1cc(I)c(O)c(I)c1	Voltage-gated inwardly rectifying potassium channel KCNH2 (Homo sapiens)	label 0
CO[C@]12C[C@@H](COC(=O)c3cncc(Br)c3)CN(C)[C@@H]1Cc1cn(C)c3cccc2c13	Voltage-gated inwardly rectifying potassium channel KCNH2 (Homo sapiens)	label 1
CN(CCCN1c2ccccc2CCc2ccccc21)CC(=O)c1ccc(Cl)cc1	Voltage-gated inwardly rectifying potassium channel KCNH2 (Homo sapiens)	label 1
O=S(c1cc(Cl)cc(Cl)c1O)c1cc(Cl)cc(Cl)c1O	Voltage-gated inwardly rectifying potassium channel KCNH2 (Homo sapiens)	label 0

Hello, the source for this data is PubChem BioAssay (NCATS), in case you need it.
